# System: Staphylococcus aureus
# assay.procedure: Antibacterial activity against methicillin resistant Staphylococcus aureus 4591/A assessed as reduction in microbial growth incubated for 24 hrs by microdilution assay
# Type: functional
value.kind: MIC (µg/mL)
Numbers only, in µg/mL.

Look over these answered cases.
CCCCCCCCCCOP(=O)(CCN(CCCN)CCCN)OCCCCCCCCCCOP(=O)(CCN(CCCN)CCCN)OCCCCCCCCCC.Cl.Cl.Cl.Cl.Cl.Cl (configuration not stated) : 1
CCCCCOP(=O)(CCN(CCCN)CCCN)OCCCCCCCCCCCCCCOP(=O)(CCN(CCCN)CCCN)OCCCCC.Cl.Cl.Cl.Cl.Cl.Cl (configuration not stated) : 1
Cl.Cl.Cl.Cl.Cl.Cl.N=C(N)NCCCN(CCCNC(=N)N)CCP(=O)(OCCCCCCCOP(=O)(CCN(CCCNC(=N)N)CCCNC(=N)N)OCCCC(F)(F)F)OCCCC(F)(F)F (configuration not stated) : 8
CC/C=C\CCCOP(=O)(CCN(CCCN)CCCN)OCCCOP(=O)(CCN(CCCN)CCCN)OCCC/C=C\CC.Cl.Cl.Cl.Cl.Cl.Cl (configuration not stated) : 64
CCC/C=C\CCOP(=O)(CCN(CCCN)CCCN)OCCCCCCOP(=O)(CCN(CCCN)CCCN)OCC/C=C\CCC.Cl.Cl.Cl.Cl.Cl.Cl (configuration not stated) : 4
CCC/C=C\CCOP(=O)(CCN(CCCN)CCCN)OCCCCCCCOP(=O)(CCN(CCCN)CCCN)OCC/C=C\CCC.Cl.Cl.Cl.Cl.Cl.Cl (configuration not stated) : 4

Lab note: next compound to report on.
Q. Dear colleague, please send me the reported MIC for CCCCCCCCOP(=O)(CCN(CCCN)CCCN)OCCCOP(=O)(CCN(CCCN)CCCN)OCCCCCCCC.Cl.Cl.Cl.Cl.Cl.Cl (configuration not stated) when you can.
A. 2

====

# Test system: Staphylococcus aureus
# assay.procedure: Antibacterial activity against wild type Staphylococcus aureus 4904/C assessed as reduction in microbial growth incubated for 24 hrs by microdilution assay
# Format: functional
value.kind: log10 of MIC (log10 of the value in µg/mL)
Response schema: value (number) is log10 of MIC in units of µg/mL.

Examples with answers:
CCCC/C=C\CCOP(=O)(CCN(CCCN)CCCN)OCCCCCOP(=O)(CCN(CCCN)CCCN)OCC/C=C\CCCC.Cl.Cl.Cl.Cl.Cl.Cl (stereo unspecified) : 0.60
O=C(O)c1cn(C2CC2)c2cc(N3CCNCC3)c(F)cc2c1=O : -0.60
CCC[C@@H]1C[C@@H](C(=O)N[C@@H]([C@H]2O[C@H](SC)[C@H](O)[C@@H](O)[C@H]2O)[C@H](C)Cl)N(C)C1 : -0.90
CCCCCCCCOP(=O)(CCN(CCCN)CCCN)OCCCCOP(=O)(CCN(CCCN)CCCN)OCCCCCCCC.Cl.Cl.Cl.Cl.Cl.Cl (stereo unspecified) : 0.00
CCCCCCCCOP(=O)(CCN(CCCN)CCCN)OCCCCCCOP(=O)(CCN(CCCN)CCCN)OCCCCCCCC.Cl.Cl.Cl.Cl.Cl.Cl (stereo unspecified) : -0.30

Q. Supply measured log10 of MIC of `CC[C@H]1OC(=O)[C@H](C)[C@@H](O[C@H]2C[C@@](C)(OC)[C@@H](O)[C@H](C)O2)[C@H](C)[C@@H](O[C@@H]2O[C@H](C)C[C@H](N(C)C)[C@H]2O)[C@](C)(O)C[C@@H](C)C(=O)[C@H](C)[C@@H](O)[C@]1(C)O` in your reply.
A. -0.60

Cited source: ChEMBL document CHEMBL5120927
